Each record here notes measured viability at 24 h, 2.5 ug/ml.
# protocol: Cytotoxicity against mouse BV-2 cells assessed as survival rate at 2.5 ug/ml incubated for 24 hrs by MTT assay
# Assay type: toxicity, cell-based
# testConditions: at 2.5 µg/mL, read-out: Activity
Expressed in %, but write only the number.

Lookup: Look at this compound and give its reported viability at 24 h, 2.5 ug/ml. COc1cccc(-c2nc(N)nc3c2CCc2ccc(F)cc2-3)n1
Found: 95.4

Lookup: What does the data say about its viability at 24 h, 2.5 ug/ml? Entry: COc1ccc(-c2nc(N)nc3c2CCc2ccc(F)cc2-3)cn1
Found: 89.6

Lookup: Quick one: viability at 24 h, 2.5 ug/ml of COc1ccc2c(c1)-c1nc(N)nc(-c3ccc(OC)cc3C(F)(F)F)c1CC2 ?
Found: 89.9

====

# System: BV-2
# protocol: Anti-neuroinflammatory activity in mouse BV-2 cells assessed as inhibition of LPS-stimulated TNF-alpha production at 2.5 ug/ml measured after 24 hrs by ELISA
# Format: functional
# Parameters: scale not given: the % may be the effect or the level left
# testConditions: dose 2.5 µg/ml
endpoint: Activity (%)
# output: bare number, implied unit %

# example entries with known answers
COc1ccc(-c2nc(N)nc3c2CCc2ccc(F)cc2-3)cc1C(F)(F)F; 42.4
COc1ccc2c(c1)-c1nc(N)nc(-c3cccc(OC)n3)c1CC2; 44.9
COc1ccc2c(c1)C(=O)/C(=C/c1ccc(OC)c(C(F)(F)F)c1)CC2; 32.8
COc1cncc(-c2nc(N)nc3c2CCc2ccc(F)cc2-3)c1; 60.8
COc1cncc(/C=C2\CCc3ccc(Br)cc3C2=O)c1; 35.9
S=C(S)N1CCCC1 [PYRROLIDINE DITHIOCARBAMATE]; 55.9
COc1ccc2c(c1)C(=O)/C(=C/c1ccc(OC)nc1)CC2; 23.8
COc1ccc(/C=C2\CCc3ccc(F)cc3C2=O)cn1; 34.3
COc1ccc2c(c1)-c1nc(N)nc(-c3ccc(OC)cc3C(F)(F)F)c1CC2; 38.2
COc1cccc(-c2nc(N)nc3c2CCc2ccc(Br)cc2-3)n1; 44.8

Lookup: Test system BV-2; read-out Activity; what value for COc1cncc(/C=C2\CCc3ccc(F)cc3C2=O)c1 ?
Found: 33.3

Lookup: Recall the recorded Activity for COc1ccc(/C=C2\CCc3ccc(F)cc3C2=O)cc1C(F)(F)F with BV-2 and state it.
Found: 38.6

Lookup: Notebook: pull reported Activity for BV-2, entry COc1ccc(-c2nc(N)nc3c2CCc2ccc(Br)cc2-3)cn1
Found: 43.8

Lookup: Activity of COc1ccc(/C=C2\CCc3ccc(Br)cc3C2=O)cn1 on BV-2?
Found: 32.5

Lookup: Please state recorded Activity (tested on BV-2) of COc1cncc(/C=C2\CCc3ccc(OC)cc3C2=O)c1
Found: 29.7

Lookup: Activity of COc1cc(/C=C2\CCc3ccc(Br)cc3C2=O)cc(OC)c1OC on BV-2?
Found: 33.1

Lookup: # get_value(readout= Activity, system= BV-2) for COc1ccc2c(c1)-c1nc(N)nc(-c3ccc(OC)c(C(F)(F)F)c3)c1CC2
Found: 46.7

Lookup: Record lookup: for BV-2, what Activity belongs to COc1cc(OC)cc(-c2nc(N)nc3c2CCc2ccc(F)cc2-3)c1 ?
Found: 45.3

Lookup: Enter reported Activity observed with BV-2 for COc1cccc(-c2nc(N)nc3c2CCc2ccc(F)cc2-3)n1
Found: 50.3

Lookup: Given the entry COc1cncc(-c2nc(N)nc3c2CCc2ccc(OC)cc2-3)c1 , what Activity was observed with BV-2?
Found: 47.3

Lookup: Form: Entry = COc1cccc(/C=C2\CCc3ccc(F)cc3C2=O)c1 | System = BV-2 | Activity = ____
Found: 34

Lookup: BV-2 / Activity / COc1cc(-c2nc(N)nc3c2CCc2ccc(Br)cc2-3)cc(OC)c1OC : value?
Found: 39.9
